All values here come from ChEMBL document CHEMBL2218924.

# Study target: Macrophage colony-stimulating factor 1 receptor (Homo sapiens)
# Condition parameters: at 10 µM
Class (required): determined from residual activity; valid ranges are zone 1 = under 40%, zone 2 = from 40% up to 60%, zone 3 = 60% and over

Please review the entries below; each comes with its answer.
INSERT INTO measurements (smiles_text, class_assignment) VALUES
  ('Cc1ccc(S(=O)(=O)/C=C/C#N)cc1', 'zone 3'),
  ('Oc1ccc(Nc2nc(-c3ccc(Cl)cc3)cs2)cc1', 'zone 2');

Req: Band of O=Nc1c(-c2c(O)[nH]c3ccccc23)[nH]c2ccccc12 ?
Resp: zone 1

Req: Band of O=C1NC(=O)c2cc(Nc3ccc(F)cc3)c(Nc3ccc(F)cc3)cc21 ?
Resp: zone 2

Req: Band of c1ccc(-c2n[nH]cc2-c2ccnc3ccccc23)nc1 ?
Resp: zone 3

Req: Band of COc1cc2ncc(-c3ccccc3)nc2cc1OC ?
Resp: zone 1

Req: Band of CO[C@H]1[C@@H](OC)C[C@H](C)[C@@H](OC)C2=CC(=O)C=C(NC(=O)/C(C)=C/C=C/[C@H](OC)[C@@H](OC(N)=O)/C(C)=C/[C@@H]1C)C2=O ?
Resp: zone 3

* * *

# Study target: Glycogen synthase kinase-3 beta (Homo sapiens)
# Condition parameters: at 10 µM
Parameter: residual activity

// solved cases for residual activity follow
INSERT INTO assay_data (smiles_text, study_target, test_result) VALUES
  ('Cn1nc2c3c(cccc31)C(=O)c1ccccc1-2', 'Glycogen synthase kinase-3 beta (Homo sapiens)', '107%'),
  ('CC(C)n1cnc2/c(=N/c3cccc(Cl)c3)nc(NCCO)[nH]c21', 'Glycogen synthase kinase-3 beta (Homo sapiens)', '88%'),
  ('CCN(CC)CCCCN1c2ccccc2Oc2ccc(Cl)cc21', 'Glycogen synthase kinase-3 beta (Homo sapiens)', '129%'),
  ('N#Cc1cnc2cnc(NCc3cccnc3)cc2c1Nc1ccc(F)c(Cl)c1', 'Glycogen synthase kinase-3 beta (Homo sapiens)', '42%'),
  ('CC[n+]1c(/C=C/N(C)c2ccccc2)n(-c2ccccc2)c2ccc(-c3nc4ccccc4s3)cc21', 'Glycogen synthase kinase-3 beta (Homo sapiens)', '116%');

Please look at the following molecule next.
Req: Record lookup: for Glycogen synthase kinase-3 beta (Homo sapiens), what residual activity belongs to COc1ccc(OC)c2c(=S)c3ccccc3[nH]c12 ?
Resp: 94%

* * *

# Study target: Tyrosine-protein kinase ABL2 (Homo sapiens) (UniProt P42684)
# Sequence (P42684 whole entry): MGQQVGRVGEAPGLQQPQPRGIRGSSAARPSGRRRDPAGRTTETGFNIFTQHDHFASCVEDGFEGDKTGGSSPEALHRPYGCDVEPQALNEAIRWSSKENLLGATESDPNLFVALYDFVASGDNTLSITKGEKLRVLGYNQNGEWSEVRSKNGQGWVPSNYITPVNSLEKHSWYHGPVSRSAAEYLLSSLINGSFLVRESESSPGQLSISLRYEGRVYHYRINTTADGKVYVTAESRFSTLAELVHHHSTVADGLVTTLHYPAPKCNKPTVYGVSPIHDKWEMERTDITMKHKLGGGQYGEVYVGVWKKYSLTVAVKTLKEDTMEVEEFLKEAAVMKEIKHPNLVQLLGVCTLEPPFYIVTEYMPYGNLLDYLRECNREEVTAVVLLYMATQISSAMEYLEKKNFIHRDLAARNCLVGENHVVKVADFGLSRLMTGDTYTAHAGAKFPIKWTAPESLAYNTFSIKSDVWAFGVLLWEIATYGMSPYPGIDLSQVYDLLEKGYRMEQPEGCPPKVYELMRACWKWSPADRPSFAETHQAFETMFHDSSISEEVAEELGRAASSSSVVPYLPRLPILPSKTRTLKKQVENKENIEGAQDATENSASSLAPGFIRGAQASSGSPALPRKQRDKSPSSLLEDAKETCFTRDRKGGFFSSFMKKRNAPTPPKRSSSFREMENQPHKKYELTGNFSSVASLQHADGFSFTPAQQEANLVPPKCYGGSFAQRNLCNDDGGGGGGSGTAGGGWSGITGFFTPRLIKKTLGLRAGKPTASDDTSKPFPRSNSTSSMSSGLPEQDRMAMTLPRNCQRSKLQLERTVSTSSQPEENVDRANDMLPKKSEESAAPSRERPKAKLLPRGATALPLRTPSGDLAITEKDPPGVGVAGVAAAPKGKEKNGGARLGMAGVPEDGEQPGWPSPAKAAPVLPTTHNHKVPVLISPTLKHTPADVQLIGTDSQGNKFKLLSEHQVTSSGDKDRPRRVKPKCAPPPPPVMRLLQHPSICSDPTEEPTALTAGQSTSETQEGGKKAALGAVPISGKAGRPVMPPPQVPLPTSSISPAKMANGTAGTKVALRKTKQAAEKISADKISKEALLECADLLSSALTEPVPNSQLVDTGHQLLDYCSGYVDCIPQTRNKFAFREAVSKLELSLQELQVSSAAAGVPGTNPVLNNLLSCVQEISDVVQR
# Condition parameters: at 10 µM
Attribute: residual activity
Kindly answer with a numeric value in %, unit omitted.

// solved cases for residual activity follow
INSERT INTO results (smiles_text, parameter, test_result) VALUES
  ('O=C1NC(=O)/C(=C\c2ccc3nccnc3c2)S1', 'residual activity', 86),
  ('Cn1cnc2cc3c(Nc4cccc(Br)c4)ncnc3cc21', 'residual activity', 14),
  ('O=Nc1c(-c2c(O)[nH]c3ccccc23)[nH]c2ccccc12', 'residual activity', 28);

Req: Form field: reported residual activity of CN(C)c1ccc(/C=C2\C(=O)Nc3ccccc32)cc1
Resp: 89

Req: Form field: reported residual activity of Nc1n[nH]c2nnc(-c3c(-c4ccccc4)nn4ccccc34)cc12
Resp: 18

Req: Form field: reported residual activity of O=C1Nc2cc(Br)ccc2/C1=C1/Nc2ccccc2/C1=N\O
Resp: 2

Req: Form field: reported residual activity of Cc1nc(-c2ccccc2)c(-c2ccncc2)o1
Resp: 45

Req: Form field: reported residual activity of COc1cc2ncnc(Nc3ccc(NC(=O)c4ccccc4)cc3)c2cc1OC
Resp: 93

Req: Form field: reported residual activity of C[C@@H](N)[C@H]1CC[C@H](C(=O)Nc2ccncc2)CC1
Resp: 100
